measured.on: human TLR9 (Homo sapiens, UniProt Q9NR96)
Sequence (Q9NR96 26-1032): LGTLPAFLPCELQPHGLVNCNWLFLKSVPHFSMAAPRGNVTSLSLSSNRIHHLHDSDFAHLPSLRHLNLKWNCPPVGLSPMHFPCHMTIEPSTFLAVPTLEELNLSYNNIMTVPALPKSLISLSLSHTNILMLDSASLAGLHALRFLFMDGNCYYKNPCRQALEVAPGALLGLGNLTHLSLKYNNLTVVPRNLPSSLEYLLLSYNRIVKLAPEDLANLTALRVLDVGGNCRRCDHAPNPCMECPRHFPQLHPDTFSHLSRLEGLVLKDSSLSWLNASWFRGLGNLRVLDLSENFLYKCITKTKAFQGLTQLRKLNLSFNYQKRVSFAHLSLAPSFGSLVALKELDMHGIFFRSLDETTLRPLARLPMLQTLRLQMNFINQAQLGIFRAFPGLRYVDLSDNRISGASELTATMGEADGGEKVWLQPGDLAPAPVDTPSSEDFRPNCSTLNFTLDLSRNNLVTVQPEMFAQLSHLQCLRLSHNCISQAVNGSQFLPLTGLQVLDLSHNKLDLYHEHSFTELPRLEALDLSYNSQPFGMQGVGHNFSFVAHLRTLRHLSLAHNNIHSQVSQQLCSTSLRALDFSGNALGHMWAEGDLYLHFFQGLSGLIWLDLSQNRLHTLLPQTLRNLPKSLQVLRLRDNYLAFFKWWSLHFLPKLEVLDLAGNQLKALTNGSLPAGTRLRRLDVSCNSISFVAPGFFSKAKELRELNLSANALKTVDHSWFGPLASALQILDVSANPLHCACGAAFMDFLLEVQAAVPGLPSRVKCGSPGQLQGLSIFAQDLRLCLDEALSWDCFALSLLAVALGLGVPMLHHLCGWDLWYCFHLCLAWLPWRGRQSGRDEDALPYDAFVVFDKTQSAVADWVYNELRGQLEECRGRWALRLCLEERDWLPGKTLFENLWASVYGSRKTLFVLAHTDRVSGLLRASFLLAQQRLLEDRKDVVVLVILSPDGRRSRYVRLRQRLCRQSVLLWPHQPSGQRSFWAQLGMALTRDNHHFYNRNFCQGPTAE
assay.procedure: TLR9 inhibition reporter assay (HEK-Blue cells, SEAP reporter, ODN2006 stimulation)
particulars: HEK-Blue cells overexpressing human TLR9, SEAP reporter, ODN2006 5 nM
Text: TLR7/8/9 Inhibition Reporter Assays HEK-Blue™-cells (Invivogen) overexpressing human TLR7, TLR8 or TLR9 receptors were used for screening inhibitors of these receptors using an inducible SEAP (secreted embryonic alkaline phosphatase) reporter gene under the control of the IFN-β minimal promoter fused to five NF-κB and AP-1-binding sites. […]
pIC50: −log10 of the molar value.
# pIC50 annotations

# compound, measured.on, censoring.qualifier, pIC50
rows = [
    ("Cc1c(-c2[nH]c3sc(C4CCC(NCC(=O)N(C)C)CC4)nc3c2C(C)C)cn2ncnc2c1C (single isomer, unassigned) [Example 204]", "human TLR9 (Homo sapiens, UniProt Q9NR96)", "=", 4.75),
    ("Cc1c(-c2[nH]c3sc(C4CCN(C(C)C)CC4)nc3c2C(C)C)cn2ncnc2c1C", "human TLR9 (Homo sapiens, UniProt Q9NR96)", "=", 4.82),
    ("Cc1c(-c2[nH]c3sc(C4CCC(NC5CCOCC5)CC4)nc3c2C(C)C)cn(C)c(=O)c1C (single isomer, unassigned) [Example 250]", "human TLR9 (Homo sapiens, UniProt Q9NR96)", "=", 4.36),
    ("CCN(C)C1CCC(c2nc3c(C(C)C)c(-c4cc(OC)c5ncnn5c4)[nH]c3s2)CC1 (single isomer, unassigned) [Example 72]", "human TLR9 (Homo sapiens, UniProt Q9NR96)", "=", 5.14),
    ("Cc1c(-c2[nH]c3sc(C4CCC(N5CC(O)C5)CC4)nc3c2C(C)C)cn(C)c(=O)c1C (single isomer, unassigned) [Example 263]", "human TLR9 (Homo sapiens, UniProt Q9NR96)", "=", 4.74),
    ("COc1cc(-c2[nH]c3sc(C4CCC(N5CC(O)(C(F)(F)F)C5)CC4)nc3c2C(C)C)cn2ncnc12 (single isomer, unassigned) [Example 119]", "human TLR9 (Homo sapiens, UniProt Q9NR96)", "<", 4.30),
    ("Cc1cc2ncnn2cc1-c1[nH]c2sc(C3CCC(NC4COC4)CC3)nc2c1C(C)C (single isomer, unassigned) [Example 153]", "human TLR9 (Homo sapiens, UniProt Q9NR96)", "=", 4.65),
    ("Cc1cc2ncnn2cc1-c1[nH]c2sc(C3CCC(N4CCNC(=O)C4)CC3)nc2c1C(C)C (single isomer, unassigned) [Example 148]", "human TLR9 (Homo sapiens, UniProt Q9NR96)", "<", 4.30),
    ("COc1cc(-c2[nH]c3sc(C(=O)NCC(F)F)nc3c2C(C)C)cn2ncnc12", "human TLR9 (Homo sapiens, UniProt Q9NR96)", "=", 4.43),
    ("Cc1cc(-c2[nH]c3sc(C4CCC(NC5COC5)CC4)nc3c2C(C)C)cn2ncnc12 (single isomer, unassigned) [Example 131]", "human TLR9 (Homo sapiens, UniProt Q9NR96)", "=", 4.96),
    ("COc1cc(-c2[nH]c3sc(C(=O)NCCN(C)C)nc3c2C(C)C)cn2ncnc12", "human TLR9 (Homo sapiens, UniProt Q9NR96)", "=", 4.79),
    ("COc1cc(-c2[nH]c3sc(C4CCC(NCC(C)(C)OC)CC4)nc3c2C(C)C)cn2ncnc12 (single isomer, unassigned) [Example 87]", "human TLR9 (Homo sapiens, UniProt Q9NR96)", "=", 5.11),
    ("Cc1c(-c2[nH]c3sc(C(=O)N4CC(F)C4)nc3c2C(C)C)cn2ncnc2c1C", "human TLR9 (Homo sapiens, UniProt Q9NR96)", "=", 4.55),
    ("CNCCNC1CCC(c2nc3c(C(C)C)c(-c4cc(OC)c5ncnn5c4)[nH]c3s2)CC1 (single isomer, unassigned) [Example 171]", "human TLR9 (Homo sapiens, UniProt Q9NR96)", "=", 6.06),
    ("Cc1c(-c2[nH]c3sc(N4C[C@@H](C)N(CCS(C)(=O)=O)C[C@@H]4C)nc3c2C(C)C)cn2ncnc2c1C", "human TLR9 (Homo sapiens, UniProt Q9NR96)", "=", 4.37),
    ("COc1cc(-c2[nH]c3sc(C4CCC(N5CC6(COC6)C5)CC4)nc3c2C(C)C)cn2ncnc12 (single isomer, unassigned) [Example 69]", "human TLR9 (Homo sapiens, UniProt Q9NR96)", "=", 5.20),
    ("Cc1c(-c2[nH]c3sc(C4CCC(N5CC6(COC6)C5)CC4)nc3c2C(C)C)cn2ncnc2c1C (single isomer, unassigned) [Example 192]", "human TLR9 (Homo sapiens, UniProt Q9NR96)", "=", 4.79),
    ("COc1cc(-c2[nH]c3sc(C4CCC(NS(C)(=O)=O)CC4)nc3c2C(C)C)cn2ncnc12 (stereo not drawn)", "human TLR9 (Homo sapiens, UniProt Q9NR96)", "<", 4.30),
    ("Cc1cc(-c2[nH]c3sc(N4CCN(CC(C)C)C[C@H]4C)nc3c2C(C)C)cn2ncnc12", "human TLR9 (Homo sapiens, UniProt Q9NR96)", "=", 4.34),
    ("Cc1cc(-c2[nH]c3nc(C4CCN(CC5(C)COC5)CC4)sc3c2C(C)C)cn2ncnc12", "human TLR9 (Homo sapiens, UniProt Q9NR96)", "=", 5.30),
    ("Cc1cc(-c2[nH]c3sc(C4CCC(NC56CC(C5)C6)CC4)nc3c2C(C)C)cn2ncnc12 (single isomer, unassigned) [Example 139]", "human TLR9 (Homo sapiens, UniProt Q9NR96)", "=", 4.76),
    ("COc1cc(-c2[nH]c3sc(C4CCC(NC56CC(C5)C6)CC4)nc3c2C(C)C)cn2ncnc12 (single isomer, unassigned) [Example 168]", "human TLR9 (Homo sapiens, UniProt Q9NR96)", "<", 4.30),
    ("Cc1c(-c2[nH]c3sc(C4CCNCC4)nc3c2C(C)C)cn2ncnc2c1C", "human TLR9 (Homo sapiens, UniProt Q9NR96)", "=", 5.07),
    ("Cc1c(-c2[nH]c3sc(C4CCC(N5CC(O)C5)CC4)nc3c2C(C)C)cn2ncnc2c1C (single isomer, unassigned) [Example 225]", "human TLR9 (Homo sapiens, UniProt Q9NR96)", "=", 5.26),
    ("Cc1cc(-c2[nH]c3sc(C4CCN(C5CCOCC5)CC4)nc3c2C(C)C)cn2ncnc12", "human TLR9 (Homo sapiens, UniProt Q9NR96)", "=", 5.31),
    ("COc1cc(-c2[nH]c3sc(C4CCC(NC5CC6(CNC6)C5)CC4)nc3c2C(C)C)cn2ncnc12 (single isomer, unassigned) [Example 117]", "human TLR9 (Homo sapiens, UniProt Q9NR96)", "=", 5.12),
    ("Cc1cc(-c2[nH]c3sc(C4CCN(CC(=O)N(C)C)CC4)nc3c2C(C)C)cc(C)n1", "human TLR9 (Homo sapiens, UniProt Q9NR96)", "=", 6.10),
]
